System Tested: UniProt:Q923Y8
Sequence (Q923Y8 whole entry): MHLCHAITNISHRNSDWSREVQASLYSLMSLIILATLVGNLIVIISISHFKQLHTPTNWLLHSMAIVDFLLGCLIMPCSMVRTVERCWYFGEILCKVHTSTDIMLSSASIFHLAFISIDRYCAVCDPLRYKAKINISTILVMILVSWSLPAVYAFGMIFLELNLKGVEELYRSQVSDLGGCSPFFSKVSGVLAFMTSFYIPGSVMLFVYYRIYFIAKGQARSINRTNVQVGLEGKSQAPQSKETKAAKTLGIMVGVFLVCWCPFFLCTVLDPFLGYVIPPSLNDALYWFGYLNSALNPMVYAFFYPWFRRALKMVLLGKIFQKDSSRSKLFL
Assay Summary: Antagonist activity at mouse TAAR1 assessed as reversal of endogenous beta-PEA effect
So basically: is IC50 under 100 nM? Then MET. Not under? Then NOT MET.

# check: IC50 < 100 nM for COc1cccc(NC(=O)c2ccc(NC(C)C)c([N+](=O)[O-])c2)c1 NOT MET

# check: IC50 < 100 nM for O=C(Nc1cccc(OC(F)(F)C(F)F)c1)c1ccc(N2CCCC2)c(C(F)(F)F)c1 NOT MET

---

Measured clearance, listed per entry.
Assay Summary: Intrinsic clearance in mouse liver microsomes measured per mg of protein
Type: ADME, Microsome
Enter your answer as a number in µL/min/mg; do not include the unit.

Below: 2 compounds and their reported clearance.
Compound | Readout Unit | clearance
COc1cccc(NC(=O)c2ccc(N3CCCC3)c(C(F)(F)F)c2)c1 | µL/min/mg | 341
COc1cccc(NC(=O)c2cnc(N3CCCC3)c(C(F)(F)F)c2)c1 | µL/min/mg | 321

Now consider a different compound.
What measured clearance goes with COc1cccc(NC(=O)c2ccc(S(=O)(=O)N3CC(C)CC(C)C3)c(F)c2)c1 (racemic) ? 1700
